protein stability index listing for selected variants.
B1: FBXO34 (parent)
chain: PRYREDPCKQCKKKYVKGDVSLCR

Variants of: B1
Assay: protein stability index of a GFP-peptide fusion (GPS, HEK-293T) (PSI 1-6); higher = more stable;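 also: lentivirally expressed fusions sorted by FACS into six bins by GFP to DsRed ratio, PSI derived from sequencing read proportions per bin multiplied by bin number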
Details: c terminus: a fixed tail appended
Answer with a number only.

Record excerpt, results attached:
D19A    3.15
C8H    3.63
R24F    2.51
K14G    2.48
D19C    3.07

Per the records, this variant ( `K13Y` ) has protein stability index equal to 2.16

Consider `R24N` . Its measured protein stability index is 3.46

# protein stability index of `P1F` = 2.61

response.value for `V16K` (field: protein stability index) = 2.75

The recorded protein stability index for entry `R24I` equals 2.46
